Test system: peripheral blood mononuclear cells (PBMC), T cells
Experiment: ELISpot assay, IL-5 release (SFC) after stimulation with a-synuclein epitope pools
Assay type: cell-based, human
Details: Patients Summary; PD patients; of donors tested (peptide)
RESULT TYPE: IL-g Peptide + (donors positive to the peptide)

SUBSTANCE	NUMBER
3521.0011 (QVTNVGGAV; listed as Homo sapiens)	0
3521.0058 (SEEGYQDYEP; listed as Homo sapiens)	0
3521.0076 (PGKTKEGVLYVGSKT; listed as Homo sapiens)	1
3521.0054 (MPVDPDNEAY; listed as Homo sapiens)	0
3521.0002 (PSEEGYQDY; listed as Homo sapiens)	0

Values from patent US20170184612A1
